- TESTED_ON: T1, recombinant purified human RGM A (R&D Systems Cat#2459-RM) (human) (UniProt Q96B86)
- T1 sequence: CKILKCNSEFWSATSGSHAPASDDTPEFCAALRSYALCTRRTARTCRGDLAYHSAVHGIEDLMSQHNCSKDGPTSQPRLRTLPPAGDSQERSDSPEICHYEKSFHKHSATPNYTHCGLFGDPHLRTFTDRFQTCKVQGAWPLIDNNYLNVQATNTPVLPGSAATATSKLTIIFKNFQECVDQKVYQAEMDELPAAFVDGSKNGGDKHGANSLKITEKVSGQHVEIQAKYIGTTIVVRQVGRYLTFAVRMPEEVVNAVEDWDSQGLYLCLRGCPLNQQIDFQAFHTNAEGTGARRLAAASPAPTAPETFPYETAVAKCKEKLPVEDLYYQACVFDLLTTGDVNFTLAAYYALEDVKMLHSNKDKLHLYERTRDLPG
- TEST: competition ELISA on coated hRGMA; competitor: biotinylated chimeric 5F9
Quick reference for IC50 among some binders

Study these solved cases before continuing.
- BINDER: "h5F9.3 (antibody, human IgG1, V domains shown) VH: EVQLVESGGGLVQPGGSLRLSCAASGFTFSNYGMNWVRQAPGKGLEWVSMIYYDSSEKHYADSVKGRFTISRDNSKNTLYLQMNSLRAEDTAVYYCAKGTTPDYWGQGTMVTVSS VL: DIVMTQTPLSLSVTPGQPASISCRSSQSLEYSDGYTFLEWYLQKPGQSPQLLIYEVSNRFSGVPDRFSGSGSGTDFTLKISRVEAEDVGVYYCFQATHDPLTFGQGTKLEIKR"
  MEASUREMENT_LABEL: "IC50"
  RESULT: "> 10 µg/mL"
- BINDER: "h5F9.1 (antibody, human IgG1, V domains shown) VH: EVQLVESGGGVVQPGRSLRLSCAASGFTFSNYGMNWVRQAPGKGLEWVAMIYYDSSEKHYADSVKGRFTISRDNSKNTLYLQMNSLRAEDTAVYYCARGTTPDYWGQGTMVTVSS VL: DIVMTQTPLSLSVTPGQPASISCRSSQSLEYSDGYTFLEWYLQKPGQSPQLLIYEVSNRFSGVPDRFSGSGSGTDFTLKISRVEAEDVGVYYCFQATHDPLTFGQGTKLEIKR"
  MEASUREMENT_LABEL: "IC50"
  RESULT: "> 10 µg/mL"

Look up IC50: h5F9.22 (antibody, human IgG1, V domains shown) VH: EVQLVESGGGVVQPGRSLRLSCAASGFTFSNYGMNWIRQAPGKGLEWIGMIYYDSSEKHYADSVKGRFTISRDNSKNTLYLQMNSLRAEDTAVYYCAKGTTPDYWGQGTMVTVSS VL: DVVLTQSPLSLPVTLGQPASISCRSSQSLEYSDGYTFLEWYLQKPGQSPQLLIYEVSNRFSGVPDRFSGSGSGTDFTLKISRVEAEDVGVYYCFQATHDPLTFGQGTKLEIKR
> 2 µg/mL
